Readings of % bound of total applied dose for the listed compounds
# System: LNCaP cells
# assay-comment: Binding and internalization (cell uptake) of 68Ga-labelled PSMA ligands in LNCaP cells
# Type: cell-based
Entry rule: numbers only, all in %.

compound	unit-text	% bound of total applied dose
CN(Cc1ccc(-c2[nH]c3cc(F)cc4c3c2CCNC4=O)cc1)C(=O)CCSSCCC(=O)NCCCCN1CCN(CC(=O)O)CCN(C(CCC(=O)N[C@H](CC(=O)O)C(=O)N[C@H](CC(=O)O)C(=O)NCCC(=O)NC[C@H]2CC[C@H](C(=O)N[C@@H](Cc3ccc4ccccc4c3)C(=O)NCCCC[C@H](NC(=O)N[C@@H](CCC(=O)O)C(=O)O)C(=O)O)CC2)C(=O)O)CCN(CC(=O)O)CC1 (some centres unmarked) [Conjugate 14]	%	6.46
CN(Cc1ccc(-c2[nH]c3cc(F)cc4c3c2CCNC4=O)cc1)C(=O)CCCCCCC(=O)NCCCC[C@@H](NC(=O)CCC(C(=O)O)N1CCN(CC(=O)O)CCN(CC(=O)O)CCN(CC(=O)O)CC1)C(=O)N[C@H](CC(=O)O)C(=O)NCCC(=O)NC[C@H]1CC[C@H](C(=O)N[C@@H](Cc2ccc3ccccc3c2)C(=O)NCCCC[C@H](NC(=O)N[C@@H](CCC(=O)O)C(=O)O)C(=O)O)CC1 (some centres unmarked) [Conjugate 13]	%	10.8
CN(Cc1ccc(-c2[nH]c3cc(F)cc4c3c2CCNC4=O)cc1)C(=O)CCSSCCC(=O)NCCCC[C@@H](NC(=O)CCC(C(=O)O)N1CCN(CC(=O)O)CCN(CC(=O)O)CCN(CC(=O)O)CC1)C(=O)N[C@H](CC(=O)O)C(=O)N[C@H](Cc1ccc(O)cc1)C(=O)N[C@H](Cc1ccccc1)C(=O)N[C@@H](Cc1ccc2ccccc2c1)C(=O)NCCCCCC(=O)NCCCC[C@H](NC(=O)N[C@@H](CCC(=O)O)C(=O)O)C(=O)O (single isomer, unassigned) [Conjugate 11]	%	6.45
CN(Cc1ccc(-c2[nH]c3cc(F)cc4c3c2CCNC4=O)cc1)C(=O)CCSSCCC(=O)NCCCC[C@@H](NC(=O)CCC(C(=O)O)N1CCN(CC(=O)O)CCN(CC(=O)O)CCN(CC(=O)O)CC1)C(=O)N[C@H](CC(=O)O)C(=O)NCCC(=O)NC[C@H]1CC[C@H](C(=O)N[C@@H](Cc2ccc3ccccc3c2)C(=O)NCCCC[C@H](NC(=O)N[C@@H](CCC(=O)O)C(=O)O)C(=O)O)CC1 (some centres unmarked) [Conjugate 9]	%	8.00

Please look at the following compound next.
Query :: Look up and report measured % bound of total applied dose for this entry: CN(Cc1ccc(-c2[nH]c3cc(F)cc4c3c2CCNC4=O)cc1)C(=O)CCSSCCC(=O)NCCCCN1CCN(CC(=O)O)CCN(C(CCC(=O)N[C@H](CC(=O)O)C(=O)N[C@H](CC(=O)O)C(=O)N[C@H](Cc2ccc(O)cc2)C(=O)N[C@H](Cc2ccccc2)C(=O)N[C@H](Cc2ccccc2)C(=O)NCCCCCC(=O)NCCCCCC(=O)NCCCC[C@H](NC(=O)N[C@@H](CCC(=O)O)C(=O)O)C(=O)O)C(=O)O)CCN(CC(=O)O)CC1 (some centres unmarked) [Conjugate 15]
Result :: 6.50

* * *

# target-of-assay: prostate-specific membrane antigen (PSMA)
# assay-comment: competition with [68Ga]-PSMA-617 (0.4 nM) on LNCaP cells, 60 min on ice
readout-name: pIC50
On this scale, pIC50 is minus log10 of a concentration expressed in M (mol/L).

For orientation, consider the following solved cases.
substance	target-of-assay	pIC50
PSMARuc-11: DOTAGA-D-Lys(Ruc-SS)-D-Asp-D-Tyr-D-Phe-L-Nal-Ahx-KuE (peptide)	prostate-specific membrane antigen (PSMA)	8.27
PSMARuc-10: DOTAGA-D-Lys(Ruc-SS)-D-Asp-D-Tyr-D-Phe-D-Phe-Ahx-KuE (peptide)	prostate-specific membrane antigen (PSMA)	8.87
PSMARuc-13: DOTAGA-D-Lys(Ruc-Sub)-D-Asp-β-Ala-TXA-L-Nal-KuE (peptide)	prostate-specific membrane antigen (PSMA)	9.17

Pending substance:
Query :: Give a short answer stating reported pIC50 for PSMARuc-12: DOTAGA-D-Lys(Ruc-SS)-D-Asp-D-Tyr-D-Phe-D-Phe-Ahx-Ahx-KuE (peptide) .
Result :: 8.67

* * *

# assay-comment: Lipophilicity, n-octanol/PBS distribution coefficient
# Format: physicochemical
# applied-conditions: pH 7.4
readout-name: logD
# respond with the number and nothing more

Query :: Return value of logD for input CN(Cc1ccc(-c2[nH]c3cc(F)cc4c3c2CCNC4=O)cc1)C(=O)CCCCCCC(=O)NCCCC[C@@H](NC(=O)CCC(C(=O)O)N1CCN(CC(=O)O)CCN(CC(=O)O)CCN(CC(=O)O)CC1)C(=O)N[C@H](CC(=O)O)C(=O)NCCC(=O)NC[C@H]1CC[C@H](C(=O)N[C@@H](Cc2ccc3ccccc3c2)C(=O)NCCCC[C@H](NC(=O)N[C@@H](CCC(=O)O)C(=O)O)C(=O)O)CC1 (some centres unmarked) [Conjugate 13] , no commentary.
Result :: -2.58

Query :: Give a short answer stating reported logD for CN(Cc1ccc(-c2[nH]c3cc(F)cc4c3c2CCNC4=O)cc1)C(=O)CCSSCCC(=O)NCCCCN1CCN(CC(=O)O)CCN(C(CCC(=O)N[C@H](CC(=O)O)C(=O)N[C@H](CC(=O)O)C(=O)NCCC(=O)NC[C@H]2CC[C@H](C(=O)N[C@@H](Cc3ccc4ccccc4c3)C(=O)NCCCC[C@H](NC(=O)N[C@@H](CCC(=O)O)C(=O)O)C(=O)O)CC2)C(=O)O)CCN(CC(=O)O)CC1 (some centres unmarked) [Conjugate 14] .
Result :: -3.42

Query :: Query logD for CN(Cc1ccc(-c2[nH]c3cc(F)cc4c3c2CCNC4=O)cc1)C(=O)CCSSCCC(=O)NCCCC[C@@H](NC(=O)CCC(C(=O)O)N1CCN(CC(=O)O)CCN(CC(=O)O)CCN(CC(=O)O)CC1)C(=O)N[C@H](CC(=O)O)C(=O)NCCC(=O)NC[C@H]1CC[C@H](C(=O)N[C@@H](Cc2ccc3ccccc3c2)C(=O)NCCCC[C@H](NC(=O)N[C@@H](CCC(=O)O)C(=O)O)C(=O)O)CC1 (some centres unmarked) [Conjugate 9]
Result :: -2.1

Query :: Return reported logD. Input molecule: CN(Cc1ccc(-c2[nH]c3cc(F)cc4c3c2CCNC4=O)cc1)C(=O)CCSSCCC(=O)NCCCC[C@@H](NC(=O)CCC(C(=O)O)N1CCN(CC(=O)O)CCN(CC(=O)O)CCN(CC(=O)O)CC1)C(=O)N[C@H](CC(=O)O)C(=O)N[C@H](Cc1ccc(O)cc1)C(=O)N[C@H](Cc1ccccc1)C(=O)N[C@@H](Cc1ccc2ccccc2c1)C(=O)NCCCCCC(=O)NCCCC[C@H](NC(=O)N[C@@H](CCC(=O)O)C(=O)O)C(=O)O (single isomer, unassigned) [Conjugate 11]
Result :: -3.11

Query :: Query logD for CN(Cc1ccc(-c2[nH]c3cc(F)cc4c3c2CCNC4=O)cc1)C(=O)CCSSCCC(=O)NCCCCN1CCN(CC(=O)O)CCN(C(CCC(=O)N[C@H](CC(=O)O)C(=O)N[C@H](CC(=O)O)C(=O)N[C@H](Cc2ccc(O)cc2)C(=O)N[C@H](Cc2ccccc2)C(=O)N[C@H](Cc2ccccc2)C(=O)NCCCCCC(=O)NCCCCCC(=O)NCCCC[C@H](NC(=O)N[C@@H](CCC(=O)O)C(=O)O)C(=O)O)C(=O)O)CCN(CC(=O)O)CC1 (some centres unmarked) [Conjugate 15]
Result :: -3.4

* * *

# assay-comment: Lipophilicity, n-octanol/PBS distribution coefficient
# Format: physicochemical
# applied-conditions: n-octanol/PBS pH 7.4, after radiolabeling with 68Ga; read-out: logD (n-oct/PBS)
readout-name: logD
Write no unit; give the number alone.

Query :: Kindly indicate its recorded logD. Item: O=C(O)CC[C@H](NC(=O)N[C@@H](CCCCNC(=O)[C@H](Cc1ccc2ccccc2c1)NC(=O)[C@H]1CC[C@H](CNC(=O)CN2CCN(CC(=O)O)CCN(CC(=O)O)CCN(CC(=O)O)CC2)CC1)C(=O)O)C(=O)O [PSMA-617]
Result :: -3.62

* * *

# target-of-assay: PSMA (Homo sapiens, UniProt Q04609)
# Construct: endogenous in cells
# Sequence (Q04609 whole entry): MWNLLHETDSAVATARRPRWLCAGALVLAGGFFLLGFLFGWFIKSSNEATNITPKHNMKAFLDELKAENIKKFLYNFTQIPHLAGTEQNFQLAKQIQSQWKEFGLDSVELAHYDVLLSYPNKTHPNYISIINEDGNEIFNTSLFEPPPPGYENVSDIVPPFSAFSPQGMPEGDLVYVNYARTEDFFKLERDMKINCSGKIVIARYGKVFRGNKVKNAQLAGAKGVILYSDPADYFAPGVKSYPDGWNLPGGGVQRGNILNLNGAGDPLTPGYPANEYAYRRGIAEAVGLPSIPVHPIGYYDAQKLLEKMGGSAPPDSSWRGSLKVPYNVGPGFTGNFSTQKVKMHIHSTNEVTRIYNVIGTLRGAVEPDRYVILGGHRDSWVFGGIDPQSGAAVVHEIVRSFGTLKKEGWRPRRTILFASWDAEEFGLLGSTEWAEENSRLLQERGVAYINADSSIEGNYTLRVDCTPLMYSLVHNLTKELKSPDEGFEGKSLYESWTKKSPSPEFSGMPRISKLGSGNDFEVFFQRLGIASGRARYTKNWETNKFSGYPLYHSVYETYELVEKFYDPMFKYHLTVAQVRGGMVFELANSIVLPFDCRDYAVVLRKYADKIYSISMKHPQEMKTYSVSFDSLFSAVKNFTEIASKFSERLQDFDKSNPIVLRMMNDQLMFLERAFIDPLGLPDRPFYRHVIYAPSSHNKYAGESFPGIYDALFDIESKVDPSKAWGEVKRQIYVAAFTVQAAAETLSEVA
# assay-comment: IC50 determination by competition with [68Ga]-PSMA-617 on LNCaP cells
# applied-conditions: [68Ga]-PSMA-617 0.4 nM, 60 min on ice, natGa-labelled ligands
Where a SMILES comes first, the peptide text is derived from it. [ ]: non-standard residue; d: D form. The star is where a group is joined. X1 = CN(Cc1ccc(-c2[nH]c3cc(F)cc4c3c2CCNC4=O)cc1)C(=O)CCS*; EuK = O=C(O)CC[C@H](NC(=O)N[C@@H](CCCCN*)C(=O)O)C(=O)O; Ahx = NCCCCCC(=O)O; Mpa = O=C(O)CCS
// assign 1 if IC50 falls strictly below 2 nM, else 0 (ties count as 0)

Field: example entries. Status: answers known.
molecule	classification
CN(Cc1ccc(-c2[nH]c3cc(F)cc4c3c2CCNC4=O)cc1)C(=O)CCSSCCC(=O)NCCCC[C@@H](NC(=O)CCC(C(=O)O)N1CCN(CC(=O)O)CCN(CC(=O)O)CCN(CC(=O)O)CC1)C(=O)N[C@H](CC(=O)O)C(=O)NCCC(=O)NC[C@H]1CC[C@H](C(=O)N[C@@H](Cc2ccc3ccccc3c2)C(=O)NCCCC[C@H](NC(=O)N[C@@H](CCC(=O)O)C(=O)O)C(=O)O)CC1 (some centres unmarked) [Conjugate 9]	0
CN(Cc1ccc(-c2[nH]c3cc(F)cc4c3c2CCNC4=O)cc1)C(=O)CCSSCCC(=O)NCCCCN1CCN(CC(=O)O)CCN(C(CCC(=O)N[C@H](CC(=O)O)C(=O)N[C@H](CC(=O)O)C(=O)N[C@H](Cc2ccc(O)cc2)C(=O)N[C@H](Cc2ccccc2)C(=O)N[C@H](Cc2ccccc2)C(=O)NCCCCCC(=O)NCCCCCC(=O)NCCCC[C@H](NC(=O)N[C@@H](CCC(=O)O)C(=O)O)C(=O)O)C(=O)O)CCN(CC(=O)O)CC1 (some centres unmarked) [Conjugate 15]	0
CN(Cc1ccc(-c2[nH]c3cc(F)cc4c3c2CCNC4=O)cc1)C(=O)CCCCCCC(=O)NCCCC[C@@H](NC(=O)CCC(C(=O)O)N1CCN(CC(=O)O)CCN(CC(=O)O)CCN(CC(=O)O)CC1)C(=O)N[C@H](CC(=O)O)C(=O)NCCC(=O)NC[C@H]1CC[C@H](C(=O)N[C@@H](Cc2ccc3ccccc3c2)C(=O)NCCCC[C@H](NC(=O)N[C@@H](CCC(=O)O)C(=O)O)C(=O)O)CC1 (some centres unmarked) [Conjugate 13]	1
CN(Cc1ccc(-c2[nH]c3cc(F)cc4c3c2CCNC4=O)cc1)C(=O)CCSSCCC(=O)NCCCCN1CCN(CC(=O)O)CCN(C(CCC(=O)N[C@H](CC(=O)O)C(=O)N[C@H](CC(=O)O)C(=O)NCCC(=O)NC[C@H]2CC[C@H](C(=O)N[C@@H](Cc3ccc4ccccc4c3)C(=O)NCCCC[C@H](NC(=O)N[C@@H](CCC(=O)O)C(=O)O)C(=O)O)CC2)C(=O)O)CCN(CC(=O)O)CC1 (some centres unmarked) [Conjugate 14]	0
CN(Cc1ccc(-c2[nH]c3cc(F)cc4c3c2CCNC4=O)cc1)C(=O)CCSSCCC(=O)NC[C@H]1CC[C@H](C(=O)N[C@@H](Cc2ccc3ccccc3c2)C(=O)NCCCC[C@H](NC(=O)N[C@@H](CCC(=O)O)C(=O)O)C(=O)O)CC1 [Conjugate 7]	0

Query :: For "O=C(O)CC[C@H](NC(=O)N[C@@H](CCCCNC(=O)[C@H](Cc1ccc2ccccc2c1)NC(=O)[C@H]1CC[C@H](CNC(=O)CN2CCN(CC(=O)O)CCN(CC(=O)O)CCN(CC(=O)O)CC2)CC1)C(=O)O)C(=O)O" , is the recorded IC50 below the cut-off of 2 nM?
Result :: 1

Query :: Take the molecule CN(Cc1ccc(-c2[nH]c3cc(F)cc4c3c2CCNC4=O)cc1)C(=O)CCSSCCC(=O)NCCCC[C@@H](NC(=O)CCC(C(=O)O)N1CCN(CC(=O)O)CCN(CC(=O)O)CCN(CC(=O)O)CC1)C(=O)N[C@H](CC(=O)O)C(=O)N[C@H](Cc1ccc(O)cc1)C(=O)N[C@H](Cc1ccccc1)C(=O)N[C@@H](Cc1ccc2ccccc2c1)C(=O)NCCCCCC(=O)NCCCC[C@H](NC(=O)N[C@@H](CCC(=O)O)C(=O)O)C(=O)O (single isomer, unassigned) [Conjugate 11] and say whether its IC50 is less than 2 nM.
Result :: 0

Query :: Strictly below 2 nM in IC50? CN(Cc1ccc(-c2[nH]c3cc(F)cc4c3c2CCNC4=O)cc1)C(=O)CCSSCCC(=O)N[C@H](CC(=O)O)C(=O)N[C@H](Cc1ccc(O)cc1)C(=O)N[C@H](Cc1ccccc1)C(=O)N[C@H](Cc1ccccc1)C(=O)NCCCCCC(=O)NCCCC[C@H](NC(=O)N[C@@H](CCC(=O)O)C(=O)O)C(=O)O [Conjugate 8] ([Mpa](X1)[dD][dY][dF][dF][Ahx]-EuK)
Result :: 1
